Hey, just so you know, these numbers are from patent US20250011397A1.

- Experimental system: SARS-CoV-2 Spike on HIV-based pseudotyped virus (Spike plasmid BEI NR52310) (SARS-CoV-2, UniProt P0DTC2 14-1273)
- Assay overview: cell-based or functional assay
Measured quantity: IC50 SARS-CoV2 PsV (µg/mL), IgG
Answer with a number only, understood to be in µg/mL.

Name the recorded IC50 SARS-CoV2 PsV (µg/mL), IgG of the item mAb 52 (antibody, V domains shown, also called IgG 52; antibody 52) VH: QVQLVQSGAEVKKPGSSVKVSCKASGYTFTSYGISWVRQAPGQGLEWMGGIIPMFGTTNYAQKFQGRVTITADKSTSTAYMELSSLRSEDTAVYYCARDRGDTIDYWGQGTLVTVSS VL: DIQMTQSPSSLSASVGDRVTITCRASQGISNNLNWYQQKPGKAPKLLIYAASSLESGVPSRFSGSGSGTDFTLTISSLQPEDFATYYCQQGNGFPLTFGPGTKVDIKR in your answer.
0.55
